Recorded Ratio CC50/IC50, one value per entry.
Test system: MRC5
procedure_details: Relative antimalarial activity to cytotoxicity as selectivity index (CC50/IC50)
Type: functional
Just the number.

Illustrative cases are given below, each with its answer.
CCN(CC)c1ccc(/C=N/NC(=O)c2ccccc2)c(O)c1 | 1
CCN(CC)c1ccc(/C=N/NC(=O)c2ccc([N+](=O)[O-])cc2)c(O)c1 | 2.5
CCN(CC)c1ccc(/C=N/NC(=O)c2ccc(C(C)(C)C)cc2)c(O)c1 | 1
CC(C)(C)c1ccc(O)c(/C=N/NC(=O)c2ccccc2)c1 | 2
Cc1ccc(O)c(/C=N/NC(=O)c2ccc(C(C)(C)C)cc2)c1 | 7.4

Q: Report Ratio CC50/IC50 for CC(C)(C)c1ccc(O)c(/C=N/NC(=O)c2ccc([N+](=O)[O-])cc2)c1 please.
Ans: 1

Q: Same thing, different molecule: CC(C)(C)c1ccc(O)c(/C=N/NC(=O)c2ccc(Cl)cc2)c1
Ans: 1

Q: Again, but for CC(C)(C)c1ccc(O)c(/C=N/NC(=O)c2cccs2)c1
Ans: 7.5
